Hi there, I'd appreciate the recorded ELISA A450 for every entry that follows.
Target: T1, Orencia
T1 sequence (chain, INN chains, looked up, looked up): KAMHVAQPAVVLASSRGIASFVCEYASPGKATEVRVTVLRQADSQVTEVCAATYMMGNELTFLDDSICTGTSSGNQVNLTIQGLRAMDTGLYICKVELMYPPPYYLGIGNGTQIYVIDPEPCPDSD
Assay: ELISA, MBP fusion in E. coli lysate on Orencia
Method: 10 μL of E. coli cultured medium was added with 90 μL of PBS and 40 μL of lysis reagent (20 μL BugBuster Protein Extraction Reagent (Novagen), 20 μL Lysozyme solution 2.5 mg/mL) to lyse E. coli cells for 1 hour at room temperature. […] The plates were washed 5 times with 100 μL/well of TBST, and binding of cyclic peptides to the antigen was detected by 20 μL/well of chromogenic substrate (0.4 mg/mL 3,3′,5,5′-Tetramethyl-benzidine, 0.01% hydrogen peroxide). […]
Please reply with the number alone, leaving off any unit.

Write down ELISA A450 measured for item GGCMHPFLLTVSRHFCGG (peptide, not shown: large carriers; small tags and cut ends, MBP fusion; also called #44) [C4-302mat-3-1-11]
0.412

Write down ELISA A450 measured for item GGCMHPFLPVASHHFCAG (peptide, not shown: large carriers; small tags and cut ends, MBP fusion) [C4-302mat-3-100-27]
0.927

Write down ELISA A450 measured for item GGCLHPFLPLVSHHFCGG (peptide, not shown: large carriers; small tags and cut ends, MBP fusion; also called #9) [C4-302mat-2-1-38]
0.807

Write down ELISA A450 measured for item GGCVHPFLPVVSHHFCRG (peptide, not shown: large carriers; small tags and cut ends, MBP fusion; also called #12) [C4-302mat-3-100-20]
0.221

Write down ELISA A450 measured for item GGCMHPFLPIASLHFCGR (peptide, not shown: large carriers; small tags and cut ends, MBP fusion; also called #20) [C4-302mat-3-1-23]
1.21

Write down ELISA A450 measured for item GGCMHPFLPIVSHHFCGS (peptide, not shown: large carriers; small tags and cut ends, MBP fusion; also called #18) [C4-302mat-2-100-27]
1.29

Write down ELISA A450 measured for item GGCMHPFLPVTSHHFCGG (peptide, not shown: large carriers; small tags and cut ends, MBP fusion; also called #17) [C4-302mat-2-1-3]
0.802

Write down ELISA A450 measured for item GGCMHPYLPVISHHFCGR (peptide, not shown: large carriers; small tags and cut ends, MBP fusion; also called #16) [C4-302mat-3-100-12]
1.18

Write down ELISA A450 measured for item GGCMHPFLQVASHHFCGG (peptide, not shown: large carriers; small tags and cut ends, MBP fusion) [C4-302mat-2-1-40]
0.366

Write down ELISA A450 measured for item GGCMHPFLLVASHHFCGV (peptide, not shown: large carriers; small tags and cut ends, MBP fusion) [C4-302mat-2-1-37]
0.12

Write down ELISA A450 measured for item GGCMHPFLPVASHHFCGR (peptide, not shown: large carriers; small tags and cut ends, MBP fusion; also called #6) [C4-302mat-3-1-22]
1.11

Write down ELISA A450 measured for item GGCVHPFLQVVSHHFCGG (peptide, not shown: large carriers; small tags and cut ends, MBP fusion; also called #29) [C4-302mat-1-100-23]
0.25
